# maps each entry to its % Blocking
# experimental-target: T1, recombinant human PD-L1 (amino acids 19-239 of NP_054862.1) expressed with a C-terminal mouse IgG2a Fc tag (human)
# T1 construct: called dimeric; also called hPD-L1-mFc
# T1 sequence (chain, as listed by the source limits assumed): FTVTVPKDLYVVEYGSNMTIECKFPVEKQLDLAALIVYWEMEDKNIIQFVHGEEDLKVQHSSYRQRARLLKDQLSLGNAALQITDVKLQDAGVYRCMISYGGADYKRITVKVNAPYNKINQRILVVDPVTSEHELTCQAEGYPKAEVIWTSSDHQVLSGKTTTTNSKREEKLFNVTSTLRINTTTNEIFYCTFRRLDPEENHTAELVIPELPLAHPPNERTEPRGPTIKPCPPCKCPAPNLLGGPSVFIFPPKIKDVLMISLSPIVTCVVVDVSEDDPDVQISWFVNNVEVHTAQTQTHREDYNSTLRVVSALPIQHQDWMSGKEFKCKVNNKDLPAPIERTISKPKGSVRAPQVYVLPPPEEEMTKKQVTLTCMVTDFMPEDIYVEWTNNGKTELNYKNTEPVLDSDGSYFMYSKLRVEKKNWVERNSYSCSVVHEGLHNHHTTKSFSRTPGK
# assay-comment: BLI (Octet Red96): 100 nM hPD-L1-mFc + 500 nM mAb on captured hPD-1-hFc, 25C
Use % as the unit, but write only the number.

Completed entries (count: 2):
binder | unit-spec | % Blocking
H2aM8317N (antibody, V domains shown, human variable regions, mouse IgG2 Fc (H2aM prefix); also called H2M8317N) VH: EVQLVESGGGLVQPGGSLRLSCAASGFTVGSNYMNWVRQAPGKGLEWVSVIYSGGSTYYADSVKGRFTISRLTSKNTLYLQMSSLRPEDTAVYYCARGIRGLDVWGQGTTVTVSS VL: DIQMTQSPSSLSASVGDRVTITCRASQTINIYLNWYQQKPGRAPRLLIYAASSLQSGVPSRFSGSGSGTDFTLTISSLQPEDFATYYCHQSYSTPPITFGQGTRLEIK | % | -87
H2aM8321N (antibody, V domains shown, human variable regions, mouse IgG2 Fc (H2aM prefix); also called H2M8321N) VH: EERLVESGGDLVQPGGSLRLSCAASGITVGTNYMNWVRQAPGKGLEWVSVISSGGNTHYADSVKGRFIMSRQTSKNTLYLQMNSLETEDTAVYYCARGIRGLDVWGQGTMVTVSS VL: DIQMTQSPSSLSASVGDRVTITCRASQSMSSYLNWYQQKPGRAPKLLIFAASSLQSGVPSRFSGSGSGTDFTLTISSLQPEDFATYYCQQSYSTPPITFGQGTRLEIK | % | -94

Requested read-out: % Blocking. Entry: H2aM8323N (antibody, V domains shown, human variable regions, mouse IgG2 Fc (H2aM prefix); also called H2M8323N) VH: QVQLVQSGAEVKMPGSSVRVSCKASGGIFSSSTISWVRQAPGQGLEWMGEIIPVFGTVNYAQKFQDRVIFTADESTTTAYMELSSLKSGDTAVYFCARNWGLGSFYIWGQGTMVTVSS VL: EIVLTQSPGTLSLSPGERATLSCRASQSFNFNYLAWYQQKPGQAPRLLIYGASSRATGIPDRFSGSGSGTDFTLTINRLEPEDFGVFYCQQYESAPWTFGQGTKVEIK 94

Proceed to H2aM8310N (antibody, V domains shown, human variable regions, mouse IgG2 Fc (H2aM prefix); also called H2M8310N) VH: QVQLVQSGAEVKKPGASVQVSCKASGYSFTGYYIHWVRQAPGQGLEWMGWINPNSGTKKYAHKFQGRVTMTRDTSIDTAYMILSSLISDDTAVYYCARDEDWNFGSWFDSWGQGTLVTVSS VL: DIVMTQTPLSSPVTLGQPASISCRSSQTLVHGDGNTYLSWIQQRPGQPPRLLIYKVSNQFSGVPDRFSGSGAGTDFTLKISRVEAEDVGLYFCMQATHFPITFGQGTRLEIK 58
